Source listed as patent US20240382677A1.

Each record here notes measured Max Geom. Mean MFI @ 100 nM.
Biological target: full length human PD-1 on HEK293/hPD-1 cells (human)
Assay: FACS dose response, HEK293/hPD-1 cells

binder	units	Max Geom. Mean MFI @ 100 nM
H2aM7798N (antibody, mouse IgG2a, V domains shown) VH: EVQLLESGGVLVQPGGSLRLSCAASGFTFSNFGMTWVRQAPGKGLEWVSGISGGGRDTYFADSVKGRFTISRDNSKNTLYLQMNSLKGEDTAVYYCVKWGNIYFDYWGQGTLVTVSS VL: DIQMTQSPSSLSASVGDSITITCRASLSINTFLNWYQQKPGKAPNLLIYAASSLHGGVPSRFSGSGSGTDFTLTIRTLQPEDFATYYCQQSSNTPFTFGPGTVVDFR	MFI	20900
H2aM7780N (antibody, mouse IgG2a, V domains shown) VH: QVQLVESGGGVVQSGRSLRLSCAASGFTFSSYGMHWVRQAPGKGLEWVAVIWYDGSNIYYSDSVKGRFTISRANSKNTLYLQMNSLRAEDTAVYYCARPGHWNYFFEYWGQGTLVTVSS VL: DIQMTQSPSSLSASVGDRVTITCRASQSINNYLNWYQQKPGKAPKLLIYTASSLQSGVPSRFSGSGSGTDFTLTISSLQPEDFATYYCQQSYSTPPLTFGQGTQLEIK	MFI	18400
H4H7798N (antibody, human IgG4 S228P, kappa, V domains shown) VH: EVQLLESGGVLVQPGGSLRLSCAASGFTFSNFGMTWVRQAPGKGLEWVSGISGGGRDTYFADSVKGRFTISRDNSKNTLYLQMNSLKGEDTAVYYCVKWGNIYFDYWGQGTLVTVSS VL: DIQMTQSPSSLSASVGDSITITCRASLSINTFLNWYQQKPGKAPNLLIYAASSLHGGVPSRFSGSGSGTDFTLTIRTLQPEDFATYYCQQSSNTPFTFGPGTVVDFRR	MFI	20300
H2aM7796N (antibody, mouse IgG2a, V domains shown) VH: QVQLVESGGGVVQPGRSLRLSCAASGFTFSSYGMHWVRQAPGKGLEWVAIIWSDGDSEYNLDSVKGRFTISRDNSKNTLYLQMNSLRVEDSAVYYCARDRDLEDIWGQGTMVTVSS VL: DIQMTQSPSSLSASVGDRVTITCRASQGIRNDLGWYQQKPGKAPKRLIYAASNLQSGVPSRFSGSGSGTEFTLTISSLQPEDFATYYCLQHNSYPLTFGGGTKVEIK	MFI	14100
